target: human thyroid receptor alpha ligand-binding domain (LBD) (Homo sapiens, UniProt P10827); assay: TR-FRET thyroid receptor alpha coactivator assay (THR biochemical assay, Assay 1); settings: Table 4, THR-alpha, read-out: Activity category Assay 1 (EC50, THR-alpha agonist activity)
Sequence (P10827 163-410 isoform P10827-2 limits assumed, other chains not shown): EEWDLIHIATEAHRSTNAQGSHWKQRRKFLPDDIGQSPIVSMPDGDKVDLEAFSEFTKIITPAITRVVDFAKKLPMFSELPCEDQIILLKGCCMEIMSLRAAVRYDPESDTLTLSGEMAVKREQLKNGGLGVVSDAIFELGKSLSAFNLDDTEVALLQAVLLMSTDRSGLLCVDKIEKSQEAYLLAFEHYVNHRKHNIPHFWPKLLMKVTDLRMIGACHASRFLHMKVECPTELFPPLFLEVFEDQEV
Known EC50 of a selection of compounds

Nc1nn(-c2cc(Cl)c(Oc3cc(-c4ccccc4)c(=O)[nH]n3)c(Cl)c2)c(=O)[nH]c1=O : 0.25 to 1 µM

For `N#Cc1nn(-c2cc(Cl)c(Oc3ccc4[nH]cc(-c5ccccc5)c4c3)c(Cl)c2)c(=O)[nH]c1=O` the compound record lists EC50 as > 25 µM

For `Cc1cc(-n2nc(N)c(=O)[nH]c2=O)cc(Cl)c1Oc1cc(C(C)C)c(=O)[nH]n1` the compound record lists EC50 as 0.25 to 1 µM

For `Cc1cc(-c2nn(C)c(=O)[nH]c2=O)cc(C)c1Cc1ccc2[nH]cc(C(C)C)c2n1` the compound record lists EC50 as 0.05 to 0.25 µM
